# assay.system: PPO2 AMATU L397Q, F420M (variant based on SEQ ID NO: 1) (Amaranthus tuberculatus, UniProt Q0NZW9, F420M/L397Q)
# test: biochemical
Would you kindly list IC50 for each of these compounds?
All answers are understood in nM, so give the number only.

input: Dear colleague, I am looking for the recorded IC50 of the following compound: COC(Oc1ccccc1Oc1cc(-n2c(=O)cc(C(F)(F)F)n(C)c2=O)c(F)cc1Br)C(=O)O (centres unmarked) [phenyluracil 3]
output: 143

input: Dear colleague, I am looking for the recorded IC50 of the following compound: CCOC(=O)C(OC)Oc1ccccc1Oc1cc(-n2c(=O)cc(C(F)(F)F)n(C)c2=O)c(F)cc1Br (centres unmarked) [phenyluracil 2]
output: 159
